System: sodium channels (neuronal INa) in isolated rat dorsal root ganglion cells
assay method text: Sodium channel assay, whole-cell patch clamp, neuronal INa
Format: cell-based
test settings: pacing 3 Hz; approximate, >50% inhibition not obtained at highest concentration; read-out: Neuronal INa IC50 at 3 Hz
test readout: IC50 (µM)
Your answer should be a plain number; it is taken to be in µM.

Qu. Query (molecule): COCCOCCOCCNC(=O)N1c2ccccc2C=Cc2ccccc21 [mPEG3-N-Carbamazepine] ; field requested: IC50
Ans. 578

Qu. Need IC50, item NC(=O)N1c2ccccc2C=Cc2ccccc21 [Carbamazepine, reference compound]
Ans. 114

For the next question, use this molecule.
Qu. Entry COCCOCCOCCOCCOCCOCCOCCNC(=O)N1c2ccccc2C=Cc2ccccc21 [mPEG7-N-Carbamazepine] : reported IC50 = ?
Ans. 163
